The reader will find reported Toxicity values listed item by item below.
# Tested on: Schistosoma mansoni
# Type: functional
# Parameters: scale not given here
Just the number, please.

- Cc1ccc(N2C3c4ccccc4N(S(=O)(=O)c4ccc(C)cc4)C2c2ccccc2N3S(=O)(=O)c2ccc(C)cc2)cc1: 0
- Cc1nc2ccccc2c(O)c1CC=C(Cl)Cl: 0
- COc1cccc(O)c1CN1CCC2(CCCN(Cc3ccc(F)cc3)C2)C1 (configuration not stated): 3

Given the entry Cc1cc(NC(=O)c2cccc(C(F)(F)F)c2)n(-c2nc(-c3ccc4c(c3)OCO4)cs2)n1 , report its measured Toxicity.
0

Given the entry Cc1cc(C)c2nc(N3CCC(C(=O)NCCCN4CCC(N5CCCCC5)CC4)CC3)sc2c1 , report its measured Toxicity.
4

Given the entry Cc1cccc(-n2ncc3c(O)nc(-n4nc(C)cc4NC(=O)c4cc5ccccc5o4)nc32)c1 , report its measured Toxicity.
1

Given the entry O=C(NNc1cc(N2CCCC2)nc(N2CCCC2)n1)c1ccccc1 , report its measured Toxicity.
1

Given the entry CCCN(CCC)CC(O)COc1ccccc1C(=O)Nc1ccccc1 (configuration not stated) , report its measured Toxicity.
0

Given the entry O=C(O)C(=O)O.Oc1ccc(Br)cc1CN1CCN(Cc2cccc(F)c2)CC1 , report its measured Toxicity.
1

Given the entry Clc1ccc2[nH]c3c(NCCCN4CCOCC4)ncnc3c2c1 , report its measured Toxicity.
0

Given the entry Clc1ccc2c(N3CCCC3)ccnc2c1 , report its measured Toxicity.
1

Given the entry COc1cc2c(cc1OC)C1=NNC(=O)C1=NC(C)(C)C2 , report its measured Toxicity.
0

Given the entry CCOC(=O)c1cnc2ccc(OC)cc2c1Nc1ccc(N2CCN(C)CC2)cc1 , report its measured Toxicity.
0

Given the entry CCOC(=O)C1=C(c2ccccc2)N=c2sc(=Cc3cc(C)n(-c4ccc(F)cc4)c3C)c(=O)n2C1c1cccc(OC)c1OC (configuration not stated) , report its measured Toxicity.
0

Given the entry CCOC(=O)C1=C(C)N=c2sc(=Cc3ccccc3O)c(=O)n2C1c1ccc(OC)c2ccccc12 (configuration not stated) , report its measured Toxicity.
0

Given the entry COc1ccc2c(=O)cc(C(Cl)(Cl)Cl)oc2c1 , report its measured Toxicity.
0

Given the entry COc1ccc(C)c2sc(N(Cc3cccnc3)C(=O)c3ccc(C#N)cc3)nc12 , report its measured Toxicity.
0

Given the entry COc1ccc(CN2CCN(Cc3ccccc3)CC2)c(O)c1 , report its measured Toxicity.
0

Given the entry O=C(NCCCN1CCC(N2CCCCC2)CC1)C1=Cc2cc(Br)ccc2OC1 , report its measured Toxicity.
0

Given the entry COc1ccc(C(=O)NC(c2ccc(Cl)cc2Cl)c2cc(Cl)c3cccnc3c2O)cc1 (configuration not stated) , report its measured Toxicity.
0

Given the entry COc1ccc(-c2cc3c(SCC(=O)Nc4cc(C(F)(F)F)ccc4Cl)nccn3n2)cc1 , report its measured Toxicity.
0

Given the entry CC(C)=CCN1CCC(C(=O)Nc2ccc(-c3nc4ccccc4[nH]3)cc2)CC1 , report its measured Toxicity.
1

Given the entry CN(C)c1ccc(C=Cc2nc(=O)c3ccccc3o2)cc1 , report its measured Toxicity.
0

Given the entry CC(=O)Nc1nnc(SCc2c(C)cc(C(C)(C)C)cc2C)s1 , report its measured Toxicity.
0

====

# Test system: Schistosoma mansoni
# protocol_notes: MMV: Motility assay. Percent change (relative to DMSO controls) @ 5 uM of movement of 4-5 Schistosoma mansoni adult males after 48 h as measured by the Consensus Voting Luminance Difference algorithm available on WormAssay (PMID:22303493). Occasional incongruence ocurrs between the motility scores and the visually adjudicated 'toxicity scores'. In these cases the 'toxicity score' should be prioritized. Only those Malaria box 'Drug-like' cpds yielding the most severe phenotypes vs. somules were tested. Caffrey group UCSF.
# Type: functional
The reader will find reported Motility values listed item by item below.
Just the number, please.

Please review the entries below; each comes with its answer.
* O=c1nc(C=Cc2ccc(Br)cc2)oc2ccccc12 | 98.7
* CCN(CC)CCn1c(=N)n(CC(O)c2ccc(Cl)c(Cl)c2)c2ccccc21.Cl (stereo not given) | 7.4
* CC(C)=CCN1CCC(C(=O)Nc2ccc(-c3nc4ccccc4[nH]3)cc2)CC1 | 93.7
* Cc1cccc(-n2ncc3c(O)nc(-n4nc(C)cc4NC(=O)c4cc5ccccc5o4)nc32)c1 | 1

Please provide the recorded Motility for Br.CCN(CC)S(=O)(=O)c1ccc(-c2csc(Nc3ccc(C)c(C)c3)n2)cc1 , tested on Schistosoma mansoni.
3.9
